- Tested on: Wnt/β-catenin-mediated transcription
- assay_explanation: TCF-luciferase activity assay in 293T/Top/β-cat* cells
- Assay type: cell-based
- details: summary of FIGS. 5A, B (293T/Top cells + LiCl) and 6A-C (293T/Top/β-cat* cells)
readout_label: Wnt/β-catenin-mediated transcription

> print(dat)
                                   molecule                          assay.system              measurement
1  CN(C)CCC(=O)NC1C/C(=C\c2ccc(F)c(F)c2)C(=O)/C(=C/c2ccc(F)c(F)c2)C1 (stereo not drawn)  Wnt/β-catenin-mediated transcription  significantly inhibited
2  O=C1/C(=C/c2ccc(F)c(F)c2)CN(C(=O)CCC(=O)N2CCCC2)C/C1=C\c1ccc(F)c(F)c1  Wnt/β-catenin-mediated transcription  significantly inhibited
3  CN(C)CCC(=O)N1C/C(=C\c2ccc(Cl)c(Cl)c2)C(=O)/C(=C/c2ccc(Cl)c(Cl)c2)C1  Wnt/β-catenin-mediated transcription  significantly inhibited
4  CN(C)CCS(=O)(=O)N1C/C(=C\c2ccc(F)c(F)c2)C(=O)/C(=C/c2ccc(F)c(F)c2)C1  Wnt/β-catenin-mediated transcription  significantly inhibited
5  CN(C)CCC(=O)N1C/C(=C\c2ccccn2)C(=O)/C(=C/c2ccccn2)C1  Wnt/β-catenin-mediated transcription  significantly inhibited

Return reported Wnt/β-catenin-mediated transcription; argument: `CN(C)CCC(=O)N1C/C(=C\c2ccc(F)c(F)c2)C(=O)/C(=C/c2ccc(F)c(F)c2)C1`
significantly inhibited

Return reported Wnt/β-catenin-mediated transcription; argument: `CN(C)CCC(=O)N1C/C(=C\c2ccc(C(F)(F)F)cc2)C(=O)/C(=C/c2ccc(C(F)(F)F)cc2)C1`
significantly inhibited

Return reported Wnt/β-catenin-mediated transcription; argument: `CN(C)CCC(=O)N1C/C(=C\c2cc(Cl)cc(Cl)c2)C(=O)/C(=C/c2cc(Cl)cc(Cl)c2)C1`
significantly inhibited

Return reported Wnt/β-catenin-mediated transcription; argument: `CN(C)CCC(=O)N1C/C(=C\c2cccc(C(F)(F)F)c2)C(=O)/C(=C/c2cccc(C(F)(F)F)c2)C1`
significantly inhibited
